Data provenance is ChEMBL document CHEMBL1145601.

# procedure-details: Clearance in rhesus monkey at 1 mg/kg, iv
# Type: ADME, organism-based, Macaca mulatta
# Design: dose 1 mg/kg, route intravenous
# reported-conditions: in vivo
outcome-measure: clearance (mL/min/kg)
Give a bare numeral; the unit mL/min/kg is implied.

Fill blank: measured clearance of the compound N#Cc1cc(Cl)cc(Oc2cc(OCc3n[nH]c4ccccc34)ccc2Cl)c1 is ____. 24

###

# procedure-details: Clearance in Sprague-Dawley rat at 2 mg/kg, iv
# Format: ADME, organism-based
# Design: dose 2 mg/kg, route intravenous
# reported-conditions: in vivo
outcome-measure: clearance (mL/min/kg)
Give a bare numeral; the unit mL/min/kg is implied.

Fill blank: measured clearance of the compound N#Cc1cc(Cl)cc(Oc2cc(OCc3n[nH]c4ccccc34)ccc2Cl)c1 is ____. 13.6

###

# procedure-details: Half life in Sprague-Dawley rat at 2 mg/kg, iv
# Format: ADME, organism-based
# Set-up: dose 2 mg/kg, route intravenous
# reported-conditions: in vivo
outcome-measure: half-life (h)
Give a bare numeral; the unit h is implied.

Fill blank: measured half-life of the compound N#Cc1cc(Cl)cc(Oc2cc(OCc3n[nH]c4ccccc34)ccc2Cl)c1 is ____. 4.7

###

# Test system: Human immunodeficiency virus 1
# procedure-details: Antiviral activity against HIV1 with RT L100I mutation in human MT4 cells in presence of 40% normal human serum
# Format: functional, organism-based
# reported-conditions: Human immunodeficiency virus 1, MT4
outcome-measure: pIC50
Scale for pIC50: -log10 of concentration given in mol/L; no unit attached.

Fill blank: measured pIC50 of the compound N#Cc1cc(Cl)cc(Oc2cc(OCc3n[nH]c4ccccc34)ccc2Cl)c1 is ____. 8.59

###

# Tested on: Human immunodeficiency virus 1
# procedure-details: Antiviral activity against HIV1 with RT K103N/Y181C mutation in human MT4 cells in presence of 40% normal human serum
# Type: functional, organism-based
# reported-conditions: Human immunodeficiency virus 1, MT4
outcome-measure: pIC50
Scale for pIC50: -log10 of concentration given in mol/L; no unit attached.

# get_value(readout= pIC50, system= Human immunodeficiency virus 1) for N#Cc1cc(Cl)cc(Oc2cc(OCc3n[nH]c4ccccc34)ccc2Cl)c1 6.85

###

# procedure-details: AUC in Beagle dog at 0.25 mg/kg, iv
# Type: ADME, organism-based, Canis lupus familiaris
# Set-up: dose 0.25 mg/kg, route intravenous
# reported-conditions: plasma
outcome-measure: AUC
Numeric answer plus unit only.

Fill blank: measured AUC of the compound N#Cc1cc(Cl)cc(Oc2cc(OCc3n[nH]c4ccccc34)ccc2Cl)c1 is ____. 0.4 µM·h

###

# Tested on: Human immunodeficiency virus 1
# procedure-details: Antiviral activity against HIV1 with RT G190S mutation in human MT4 cells in presence of 40% normal human serum
# Type: functional, organism-based
# reported-conditions: Human immunodeficiency virus 1, MT4
outcome-measure: IC50 (nM)
Give a bare numeral; the unit nM is implied.

Fill blank: measured IC50 of the compound N#Cc1cc(Cl)cc(Oc2cc(OCc3n[nH]c4ccccc34)ccc2Cl)c1 is ____. 23.4

###

# target-or-test-system: Human immunodeficiency virus type 1 reverse transcriptase (Human immunodeficiency virus 1, UniProt Q72547, Y181C)
# procedure-details: Inhibition of HIV1 reverse transcriptase Y181C mutant by SPA assay
outcome-measure: IC50 (nM)
Give a bare numeral; the unit nM is implied.

Here's what some known entries look like.
N#Cc1cc(Cl)cc(Oc2cc(Cl)cc(OCC(=O)Nc3ccc(S(N)(=O)=O)cc3Cl)c2)c1 = 2.66
Cc1cc(S(N)(=O)=O)ccc1NC(=O)COc1ccc(Cl)cc1C(=O)c1cc(Cl)cc(C#N)c1 = 2.48

Fill blank: measured IC50 of the compound N#Cc1cc(Cl)cc(Oc2cc(OCC(=O)Nc3ccc(S(N)(=O)=O)cc3Cl)ccc2Cl)c1 is ____. 0.28

Fill blank: measured IC50 of the compound NS(=O)(=O)c1ccc(NC(=O)COc2cc(Cl)cc(Oc3ccccc3)c2)c(Cl)c1 is ____. 25

Fill blank: measured IC50 of the compound N#Cc1cc(Cl)cc(Oc2cc(OCc3nc4cccc(Cl)c4[nH]3)ccc2Cl)c1 is ____. 50

Fill blank: measured IC50 of the compound N#Cc1cccc(Oc2cc(Cl)cc(OCC(=O)Nc3ccc(S(N)(=O)=O)cc3Cl)c2)c1 is ____. 1.2

Fill blank: measured IC50 of the compound N#Cc1cc(Cl)cc(Oc2cc(OCc3nc4cccc(Cl)c4s3)ccc2Cl)c1 is ____. 5.15

Fill blank: measured IC50 of the compound CS(=O)(=O)c1ccc(NC(=O)COc2ccc(Cl)c(Oc3cc(Cl)cc(C#N)c3)c2)c(Cl)c1 is ____. 0.91

###

# procedure-details: Half life in rhesus monkey at 1 mg/kg, iv
# Assay type: ADME, organism-based, Macaca mulatta
# Design: dose 1 mg/kg, route intravenous
# reported-conditions: in vivo
outcome-measure: half-life

Fill blank: measured half-life of the molecule N#Cc1cc(Cl)cc(Oc2cc(OCc3n[nH]c4ccccc34)ccc2Cl)c1 is ____. 8.1 h

###

# System: Human immunodeficiency virus 1
# procedure-details: Antiviral activity against HIV1 with RT Y181C/G190A mutation in human MT4 cells in presence of 40% normal human serum
# Assay type: functional, organism-based
# reported-conditions: Human immunodeficiency virus 1, MT4
outcome-measure: IC50 (nM)
Give a bare numeral; the unit nM is implied.

Fill blank: measured IC50 of the molecule N#Cc1cc(Cl)cc(Oc2cc(OCc3n[nH]c4ccccc34)ccc2Cl)c1 is ____. 35.8

###

# System: Human immunodeficiency virus 1
# procedure-details: Antiviral activity against HIV1 with RT K103N mutation in human MT4 cells in presence of 10% fetal bovine serum
# Assay type: functional
# reported-conditions: Human immunodeficiency virus 1, MT4; read-out: CIC95
outcome-measure: IC95 (nM)
Give a bare numeral; the unit nM is implied.

Here's what some known entries look like.
N#Cc1cc(Cl)cc(Oc2cc(OCc3n[nH]c4ccccc34)ccc2Cl)c1 = 33.4
Cc1cc(S(N)(=O)=O)ccc1NC(=O)COc1ccc(Cl)cc1C(=O)c1cc(Cl)cc(C#N)c1 = 6.98
N#Cc1cc(Cl)cc(Oc2cc(OCC(=O)Nc3ccc(S(N)(=O)=O)cc3Cl)ccc2Cl)c1 = 9.52

Next item in the queue.
Fill blank: measured IC95 of the compound CS(=O)(=O)c1ccc2c(c1)CCN2C(=O)COc1ccc(Cl)c(Oc2cc(Cl)cc(C#N)c2)c1 is ____. 5.26

###

# procedure-details: Volume of distribution in rhesus monkey at 1 mg/kg, iv
# Type: ADME, organism-based, Macaca mulatta
# Design: dose 1 mg/kg, route intravenous
# reported-conditions: in vivo
outcome-measure: Vd (L/kg)
Give a bare numeral; the unit L/kg is implied.

Fill blank: measured Vd of the molecule N#Cc1cc(Cl)cc(Oc2cc(OCc3n[nH]c4ccccc34)ccc2Cl)c1 is ____. 7.1

###

# procedure-details: Volume of distribution in Sprague-Dawley rat at 10 mg/kg, po and 2 mg/kg, iv
# Format: ADME, organism-based
# reported-conditions: in vivo
outcome-measure: Vd
Numeric answer plus unit only.

Fill blank: measured Vd of the compound N#Cc1cc(Cl)cc(Oc2cc(OCc3n[nH]c4ccccc34)ccc2Cl)c1 is ____. 2.9 L/kg

###

# target-or-test-system: Human immunodeficiency virus type 1 reverse transcriptase (Human immunodeficiency virus 1)
Listing of entries alongside the reported pIC50.
Scale for pIC50: -log10 of concentration given in mol/L; no unit attached.

CS(=O)(=O)c1ccc(NC(=O)COc2ccc(Cl)c(Oc3cc(Cl)cc(C#N)c3)c2)c(Cl)c1 = 9.00
N#Cc1cc(Cl)cc(Oc2cc(OCC(=O)Nc3ccc(S(N)(=O)=O)cc3Cl)ccc2Cl)c1 = 9.85

Fill blank: measured pIC50 of the molecule N#Cc1cc(Cl)cc(Oc2cc(OCc3nc4cccc(Cl)c4[nH]3)ccc2Cl)c1 is ____. 8.49

###

# procedure-details: AUC in Sprague-Dawley rat at 10 mg/kg, po and 2 mg/kg, iv
# Assay type: ADME, organism-based
# reported-conditions: plasma
outcome-measure: AUC (µM·h)
Give a bare numeral; the unit µM·h is implied.

Fill blank: measured AUC of the molecule N#Cc1cc(Cl)cc(Oc2cc(OCc3n[nH]c4ccccc34)ccc2Cl)c1 is ____. 6.2

###

# procedure-details: AUC in rhesus monkey at 1 mg/kg, iv
# Assay type: ADME, organism-based, Macaca mulatta
# Design: dose 1 mg/kg, route intravenous
# reported-conditions: plasma
outcome-measure: AUC (µM·h)
Give a bare numeral; the unit µM·h is implied.

Fill blank: measured AUC of the molecule N#Cc1cc(Cl)cc(Oc2cc(OCc3n[nH]c4ccccc34)ccc2Cl)c1 is ____. 1.7

###

# System: Human immunodeficiency virus 1
# procedure-details: Antiviral activity against HIV1 with RT K103N/G190A mutation in human MT4 cells in presence of 40% normal human serum
# Format: functional, organism-based
# reported-conditions: Human immunodeficiency virus 1, MT4
outcome-measure: IC50 (nM)
Give a bare numeral; the unit nM is implied.

Fill blank: measured IC50 of the compound N#Cc1cc(Cl)cc(Oc2cc(OCc3n[nH]c4ccccc34)ccc2Cl)c1 is ____. 21.7
